This section presents Ki values reported for C-X-C chemokine receptor type 1 (Homo sapiens, UniProt P25024) in the literature.
Sequence (P25024 whole entry): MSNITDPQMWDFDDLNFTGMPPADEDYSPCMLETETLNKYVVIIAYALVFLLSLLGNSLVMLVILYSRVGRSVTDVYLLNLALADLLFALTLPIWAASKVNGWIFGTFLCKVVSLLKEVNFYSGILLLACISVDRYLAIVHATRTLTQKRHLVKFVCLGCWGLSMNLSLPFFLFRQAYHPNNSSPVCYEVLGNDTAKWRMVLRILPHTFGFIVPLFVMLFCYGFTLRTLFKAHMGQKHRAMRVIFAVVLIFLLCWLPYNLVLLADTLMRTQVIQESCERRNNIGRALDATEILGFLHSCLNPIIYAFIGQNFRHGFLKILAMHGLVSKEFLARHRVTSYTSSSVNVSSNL

Solved entries:
> print(dat)
                                   compound    measured.value
1  Cc1cc([C@H](Nc2n[s+]([O-])nc2Nc2cccc(C(=O)N(C)C)c2O)C(C)C)oc1C (some centres unmarked)           0.05 µM
2  CN(C1CC1)S(=O)(=O)c1scc(NC(=O)Nc2cccc(Cl)c2Cl)c1O  0.652 to 1.92 µM
3  Cc1cc([C@H](NC2=NS(=O)(=O)C=C2Nc2cccc(C(=O)N(C)C)c2O)C(C)C)oc1C          0.345 µM
4  O=C(Nc1csc(S(=O)(=O)N2CCC[C@H]2CO)c1O)Nc1cccc(Cl)c1Cl  0.652 to 1.92 µM
5  O=C(Nc1csc(S(=O)(=O)NC2CC2)c1O)Nc1cccc(Cl)c1Cl  0.652 to 1.92 µM

# query: Ki of entry O=C(Nc1csc(S(=O)(=O)N2CCCC2)c1O)Nc1cccc(Cl)c1Cl
0.652 to 1.92 µM

Bench note: what Ki did CCN(CC)S(=O)(=O)c1scc(NC(=O)Nc2cccc(Cl)c2Cl)c1O show?
0.652 to 1.92 µM

What Ki value was documented for this compound, CCN(C(C)(C)C)S(=O)(=O)c1scc(NC(=O)Nc2cccc(Cl)c2Cl)c1O ?
0.652 to 1.92 µM
